Molecular target: T1, murine B7-H3 (mB7-H3) (murine, UniProt Q8VE98 29-244, limits assumed)
T1 construct: The construct is not described
T1 sequence (looked up): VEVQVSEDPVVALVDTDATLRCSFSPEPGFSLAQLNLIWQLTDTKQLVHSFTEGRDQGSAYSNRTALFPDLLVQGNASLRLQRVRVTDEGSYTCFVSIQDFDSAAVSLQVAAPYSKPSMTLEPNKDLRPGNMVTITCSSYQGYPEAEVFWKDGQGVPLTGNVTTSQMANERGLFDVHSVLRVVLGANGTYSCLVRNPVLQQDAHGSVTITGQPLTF
Test: SPR; mB7-H3 as ligand on the chip, peptide as analyte

| BINDER | Kd |
| --- | --- |
| WALQLCHSMFYTCKSG (N-terminal acetylation (ac); lactam (isopeptide) bridge Q4-K14; disulfide bond C6-C13, Made by solid phase synthesis on Rink Amide resin; also called Selected B1.1; oxidized B1.1 (with disulfide bridge)) | 161 nM |

Data provenance is patent US20260191974A1.
